meta.source: PubChem BioAssay

Recorded z-score for the following compounds
test: budding yeast growth changes without added modifier – OD600, strain BY4716, 24 h, basal condition, primary screen (AID 1173); details: S. cerevisiae BY4716 growth, OD600, 24 h; higher = more signal, called active from +8 up or from −8 down
quantity: z-score

INSERT INTO measurements (compound, quantity, endpoint_result) VALUES
  ('CCOC(=O)C[C@H]1[C@H](OC(=O)c2ccccc2-c2ccccc2)[C@@H](NC(=O)c2ccc3ccccc3n2)c2cc(OCCCO)ccc2N1C(=O)Cc1ccc(OC)cc1', 'z-score', 0.64),
  ('CCCCCC1=C2CNC(C)(C(=O)OC)C=C2C(C)C1=O (centres undefined)', 'z-score', 2.3),
  ('CCCCCN1CC=CC23O[C@@H]4/C=C\CCCOC(=O)C4[C@H]2C(=O)N(C(C)CO)[C@@H]3C1=O (some centres undefined)', 'z-score', 0.102),
  ('CN(C)C(=O)[C@]1(Cc2ccccc2CN=[N+]=[N-])N=C(c2ccc(OCCCO)cc2)O[C@@H]1c1ccccc1', 'z-score', -0.948);

---

biological target: Torsin-1A-interacting protein 1 (Homo sapiens) (UniProt Q5JTV8); test: compound microarray binding of lysate hLAP1 – cell lysate, small-molecule microarray, COS7 lysate, 635/667 nm fluorescence, primary screen (AID 1116); details: 635 nm fluorescence, higher = more signal
Sequence (Q5JTV8 whole entry, looked up): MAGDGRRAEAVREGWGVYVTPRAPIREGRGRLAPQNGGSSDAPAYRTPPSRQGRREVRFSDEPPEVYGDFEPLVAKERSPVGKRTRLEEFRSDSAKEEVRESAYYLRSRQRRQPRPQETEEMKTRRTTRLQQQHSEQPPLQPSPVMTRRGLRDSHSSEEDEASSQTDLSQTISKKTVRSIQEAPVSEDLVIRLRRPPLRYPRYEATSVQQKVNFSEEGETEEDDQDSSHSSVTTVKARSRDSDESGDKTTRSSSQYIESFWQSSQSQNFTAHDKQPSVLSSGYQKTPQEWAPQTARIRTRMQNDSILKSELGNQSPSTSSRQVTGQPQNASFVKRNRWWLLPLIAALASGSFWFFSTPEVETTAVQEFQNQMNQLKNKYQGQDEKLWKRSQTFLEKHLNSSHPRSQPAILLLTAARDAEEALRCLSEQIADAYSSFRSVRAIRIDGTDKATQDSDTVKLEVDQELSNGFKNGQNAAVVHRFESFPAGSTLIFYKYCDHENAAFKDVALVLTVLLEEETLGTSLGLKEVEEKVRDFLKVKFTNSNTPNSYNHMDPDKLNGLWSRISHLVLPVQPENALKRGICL
quantity: composite z-score

INSERT INTO measurements (compound, quantity, endpoint_result) VALUES
  ('CCCC=C(CCC)[C@@H](NS(=O)(=O)CC12CCC(CC1=O)C2(C)C)c1ccc(C(=O)OC)cc1 (stereo not given in full)', 'composite z-score', 0.159),
  ('O=C1OCCC=C[C@H]2OC34C=CCN(c5ccc6ccccc6c5)C(=O)[C@H]3N(CCCO)C(=O)[C@@H]4C12 (stereo not given in full)', 'composite z-score', -1.25),
  ('Cn1cccc1C(O)C1C=CC2C(=O)N(c3ccccc3)C(=O)C2N1Nc1ccccc1 (stereo not given)', 'composite z-score', 1.31),
  ('COC(=O)[C@@]1(Cc2ccc(OC)cc2)[C@H]2c3cc(C(=O)N(C)C)n(Cc4ccc(OC(F)(F)F)cc4)c3C[C@H]2CN1C(=O)c1ccccc1', 'composite z-score', 1.58),
  ('C=CCC(OC(C)=O)[C@@H]1[C@@H](N(Cc2cccc3ccccc23)C(=O)Cc2ccc(OC)cc2)c2cc(OCCCO)ccc2N1C(=O)c1ccc(-c2ccccc2)cc1 (stereo not given in full)', 'composite z-score', 0.435),
  ('COc1cc(NN2C(C(O)c3cc(OC)c(OC)c(OC)c3)C=CC3C(=O)N(C)C(=O)C32)cc(OC)c1OC (stereo not given)', 'composite z-score', 0.904),
  ('CC(=O)NCCCC[C@@H]1NC(=O)[C@@H]2C[C@H](C(=O)NCCCCCN)[C@H](c3ccc(O)cc3)N2C1=O', 'composite z-score', 1.31),
  ('O=C1[C@H]2C=C(I)[C@H](C[C@@H]2OCCOCCO)[C@@]12CO2', 'composite z-score', 0.269),
  ('CC1CC/C=C\[C@H]2OC34C=CCN(Cc5ccccc5)C(=O)[C@H]3N(C(CO)C(C)C)C(=O)[C@@H]4C2C(=O)O1 (stereo not given in full)', 'composite z-score', 0.344),
  ('CCCCC(O)C1C=CC2C(=O)N(C)C(=O)C2N1N(c1ccccc1)c1ccccc1 (stereo not given)', 'composite z-score', 1.41),
  ('CCCC=C(CCC)[C@@H](NS(=O)(=O)c1ccc(C(F)(F)F)cc1)c1ccccc1', 'composite z-score', -0.127),
  ('COc1cccc(C)c1NC(=O)O[C@H]1[C@H](OC(=O)Nc2ccc3c(c2)OCO3)[C@@H](OC(=O)Nc2ccc3c(c2)OCO3)[C@@H](OC)O[C@@H]1CO', 'composite z-score', 1.5),
  ('O=C1O[C@@H](c2ccccc2)[C@@H](c2ccccc2)N2[C@@H](c3ccc(O)cc3)[C@]3(C(=O)Nc4ccc(C#CCCO)cc43)[C@@H](C(=O)N3CCN(c4ncccn4)CC3)[C@H]12', 'composite z-score', 0.255),
  ('C=C(/C(=C/C[C@H](OC(=O)c1ccncc1)c1ccc(CO)o1)c1cnc2ccccc2c1)C(C)C', 'composite z-score', 0.854),
  ('O=C(Cc1ccccc1)[C@H]1C2C=CCCC(c3ccccc3)=C2CN1Cc1ccccc1 (stereo not given in full)', 'composite z-score', 0.163);
